biological target: human MOPr (Homo sapiens, UniProt P35372)
Sequence (P35372 whole entry): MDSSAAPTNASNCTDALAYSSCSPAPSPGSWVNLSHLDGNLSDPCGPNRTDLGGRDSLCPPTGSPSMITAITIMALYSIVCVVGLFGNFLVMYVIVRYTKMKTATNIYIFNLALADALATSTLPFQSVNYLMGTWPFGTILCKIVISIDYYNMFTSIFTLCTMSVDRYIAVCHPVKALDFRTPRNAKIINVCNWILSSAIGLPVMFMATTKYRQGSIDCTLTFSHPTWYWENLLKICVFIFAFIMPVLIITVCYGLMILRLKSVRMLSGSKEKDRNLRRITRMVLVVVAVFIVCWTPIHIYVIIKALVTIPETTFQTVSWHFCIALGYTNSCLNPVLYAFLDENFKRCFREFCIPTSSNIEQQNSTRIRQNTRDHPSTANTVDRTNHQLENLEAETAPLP
Starred links: 1 amine or outer side, 2 acyl side, 3 side chain; linkers in the order of their positions; H or OH if unused. Non-standard residues stand in square brackets, D forms with d. Residues, ends and D or L forms follow the SMILES beside them. *: point of attachment. X1 = O=C1[C@@H](N[*:1])Cc2ccccc2CN1CCC(=O)[*:2]; Dmt = Cc1cc(O)cc(C)c1C[C@H](N)C(=O)O; X2 = c1ccc2[nH]c(*)nc2c1; X3 = c1ccc2oc(*)nc2c1; X4 = c1ccc2sc(*)nc2c1
Binning of Ki into classes: lo (below 0.6 nM), med (0.6 nM to below 2 nM), hi (2 nM or more)

Query block: Sort into band: CNC(=O)[C@H](Cc1ccccc1)NC(=O)[C@@H](CCCNC(=N)N)NC(=O)[C@@H](N)Cc1c(C)cc(O)cc1C [KGFF13, H-Dmt-D-Arg-Phe-NHMe] (HELM PEPTIDE1{[Cc1cc(O)cc(C)c1C[C@H](N)C(=O)[*:2]].[dR].F.[CN[*:1]]}$$$$V2.0)
Result block: lo

Query block: Sort into band: Cc1cc(O)cc(C)c1C[C@H](N)C(=O)N[C@@H](CCCN1CCCCC1)C(=O)N[C@@H](Cc1ccccc1)C(N)=O [KGFF10, H-Dmt-Apa-Phe-NH2]
Result block: hi

Query block: Sort into band: Cc1cc(O)cc(C)c1C[C@H](N)C(=O)N[C@H](CCCNC(=N)N)C(=O)N[C@H]1Cc2ccccc2CN(CC(=O)N[C@@H](CCCN)C(=O)N[C@@H](Cc2ccccc2)C(N)=O)C1=O [KGFF04, H-Dmt-D-Arg-Aba-Gly-Orn-Phe-NH2]
Result block: med

Query block: Sort into band: Cc1cc(O)cc(C)c1C[C@H](N)C(=O)N[C@H](CCCNC(=N)N)C(=O)N[C@H]1Cc2ccccc2CN(CCC(=O)N[C@@H](CCCCNc2nc3ccccc3o2)C(=O)N[C@@H](Cc2ccccc2)C(N)=O)C1=O [KGFF15, H-Dmt-D-Arg-Aba-β-Ala-Lys(Box)-Phe-NH2] (H-[Dmt][dR][X1]K(X3)F-NH2)
Result block: med

Query block: Sort into band: Cc1cc(O)cc(C)c1C[C@H](N)C(=O)N[C@H](CCCNC(=N)N)C(=O)N[C@H]1Cc2ccccc2CN(CCC(=O)N[C@@H](CCCCNc2nc3ccccc3[nH]2)C(=O)N[C@@H](Cc2ccccc2)C(N)=O)C1=O [KGFF14, H-Dmt-D-Arg-Aba-β-Ala-Lys(Bim)-Phe-NH2] (H-[Dmt][dR][X1]K(X2)F-NH2)
Result block: med

Query block: Sort into band: Cc1cc(O)cc(C)c1C[C@H](N)C(=O)N[C@H](CCCNC(=N)N)C(=O)N[C@H]1Cc2ccccc2CN(CCC(=O)N[C@@H](CCCN2CCCCC2)C(=O)N[C@@H](Cc2ccccc2)C(N)=O)C1=O [KGFF08, H-Dmt-D-Arg-Aba-β-Ala-Apa-Phe-NH2]
Result block: med

Query block: Sort into band: Cc1cc(O)cc(C)c1C[C@H](N)C(=O)N[C@H](CCCNC(=N)N)C(=O)N[C@H]1Cc2ccccc2CN(CCC(=O)N[C@@H](CCCCNc2nc3ccccc3s2)C(=O)N[C@@H](Cc2ccccc2)C(N)=O)C1=O [KGFF16, H-Dmt-D-Arg-Aba-β-Ala-Lys(Bth)-Phe-NH2] (H-[Dmt][dR][X1]K(X4)F-NH2)
Result block: hi

Query block: Sort into band: Cc1cc(O)cc(C)c1C[C@H](N)C(=O)N[C@H](CCCNC(=N)N)C(=O)N[C@@H](Cc1ccccc1)C(N)=O [KGFF07, H-Dmt-D-Arg-Phe-NH2] (HELM PEPTIDE1{[Cc1cc(O)cc(C)c1C[C@H](N)C(=O)[*:2]].[dR].F.[am]}$$$$V2.0)
Result block: lo

Query block: Sort into band: Cc1cc(O)cc(C)c1C[C@H](N)C(=O)N[C@@H](CCCNC(=N)N)C(=O)N[C@@H](Cc1ccccc1)C(N)=O [KGFF06, H-Dmt-Arg-Phe-NH2] (HELM PEPTIDE1{[Cc1cc(O)cc(C)c1C[C@H](N)C(=O)[*:2]].R.F.[am]}$$$$V2.0)
Result block: hi

Query block: Sort into band: Cc1cc(O)cc(C)c1C[C@H](N)C(=O)N[C@H](CCCNC(=N)N)C(=O)N[C@H]1Cc2ccccc2CN(CCC(=O)N[C@@H](CCCNC(=N)N)C(=O)N[C@@H](Cc2ccccc2)C(N)=O)C1=O [KGFF03, H-Dmt-D-Arg-Aba-β-Ala-Arg-Phe-NH2] (HELM PEPTIDE1{[Cc1cc(O)cc(C)c1C[C@H](N)C(=O)[*:2]].[dR].[O=C1[C@@H](N[*:1])Cc2ccccc2CN1CCC(=O)[*:2]].R.F.[am]}$$$$V2.0)
Result block: lo

Query block: Sort into band: Cc1cc(O)cc(C)c1C[C@H](N)C(=O)N[C@H](CCCNC(=N)N)C(=O)N[C@H]1Cc2ccccc2CN(CCC(N)=O)C1=O [KGOP01, reference compound]
Result block: lo

Query block: Sort into band: Cc1cc(O)cc(C)c1C[C@H](N)C(=O)N[C@H](CCCNC(=N)N)C(=O)N[C@@H](Cc1ccccc1)C(=O)N[C@@H](CCCN)C(=O)N[C@@H](Cc1ccccc1)C(N)=O [KGFF05, H-Dmt-D-Arg-Phe-Orn-Phe-NH2] (HELM PEPTIDE1{[Cc1cc(O)cc(C)c1C[C@H](N)C(=O)[*:2]].[dR].F.[Orn].F.[am]}$$$$V2.0)
Result block: hi

Query block: Sort into band: Cc1cc(O)cc(C)c1C[C@H](N)C(=O)N[C@@H](CCCN1CCC(Cc2ccccc2)CC1)C(=O)N[C@@H](Cc1ccccc1)C(N)=O [KGFF11, H-Dmt-Bpa-Phe-NH2]
Result block: hi

Query block: Sort into band: Cc1cc(O)cc(C)c1C[C@H](N)C(=O)N[C@H](CCCNC(=N)N)C(=O)N[C@H]1Cc2ccccc2CNC1=O [KGFF12, H-Dmt-D-Arg-Aba-NH]
Result block: lo

Query block: Sort into band: Cc1cc(O)cc(C)c1C[C@H](N)C(=O)N[C@H](CCCNC(=N)N)C(=O)N[C@H]1Cc2ccccc2CN(CCC(=O)N[C@@H](CCCN2CCC(Cc3ccccc3)CC2)C(=O)N[C@@H](Cc2ccccc2)C(N)=O)C1=O [KGFF09, H-Dmt-D-Arg-Aba-β-Ala-Bpa-Phe-NH2]
Result block: hi
